# EXPERIMENT_DESCRIPTION: Inhibition of rat liver Casein kinase 2
MEASURED_PARAMETER: Ki (nM)

STRUCTURE_SMILES: FC(F)(F)c1nc2c(Br)c(Br)c(Br)c(Br)c2[nH]1
ENDPOINT_UNIT: nM
RECORDED_NUMBER: 370
//
STRUCTURE_SMILES: O=C(O)Cn1cnc2c(Br)c(Br)c(Br)c(Br)c21
ENDPOINT_UNIT: nM
RECORDED_NUMBER: 1340
//
STRUCTURE_SMILES: NC(=O)Cn1cnc2c(Br)c(Br)c(Br)c(Br)c21
ENDPOINT_UNIT: nM
RECORDED_NUMBER: 1450
//
STRUCTURE_SMILES: FC(F)(F)C(F)(F)c1nc2c(Br)c(Br)c(Br)c(Br)c2[nH]1
ENDPOINT_UNIT: nM
RECORDED_NUMBER: 200
//
STRUCTURE_SMILES: Cc1nc2c(I)c(I)c(I)c(I)c2[nH]1
ENDPOINT_UNIT: nM
RECORDED_NUMBER: 24
//
STRUCTURE_SMILES: NNC(=O)Cn1cnc2c(Br)c(Br)c(Br)c(Br)c21
ENDPOINT_UNIT: nM
RECORDED_NUMBER: 1510
//
STRUCTURE_SMILES: CNC(=O)Cn1cnc2c(I)c(I)c(I)c(I)c21
ENDPOINT_UNIT: nM
RECORDED_NUMBER: 180

###

# EXPERIMENT_DESCRIPTION: Inhibition of rat liver Casein kinase 2
Ki reference

STRUCTURE_SMILES: O=C(O)Cn1cnc2c(I)c(I)c(I)c(I)c21
Ki / µM: 0.14

STRUCTURE_SMILES: O=C(O)CSc1nc2c(Br)c(Br)c(Br)c(Br)c2[nH]1
Ki / µM: 0.12

STRUCTURE_SMILES: FC(F)(F)c1nc2c(I)c(I)c(I)c(I)c2[nH]1
Ki / µM: 0.12

STRUCTURE_SMILES: NC(=O)Cn1cnc2c(I)c(I)c(I)c(I)c21
Ki / µM: 0.13

STRUCTURE_SMILES: O=C(O)CSc1nc2c(I)c(I)c(I)c(I)c2[nH]1
Ki / µM: 0.054

STRUCTURE_SMILES: Brc1nc2c(I)c(I)c(I)c(I)c2[nH]1
Ki / µM: 0.09

STRUCTURE_SMILES: OCCNc1nc2c(I)c(I)c(I)c(I)c2[nH]1
Ki / µM: 0.027

STRUCTURE_SMILES: O=c1[nH]c2c(I)c(I)c(I)c(I)c2[nH]1
Ki / µM: 0.05

STRUCTURE_SMILES: OCCNc1nc2c(Br)c(Br)c(Br)c(Br)c2[nH]1
Ki / µM: 0.14

STRUCTURE_SMILES: NNC(=O)Cn1cnc2c(I)c(I)c(I)c(I)c21
Ki / µM: 0.16

STRUCTURE_SMILES: Brc1c(I)c(Br)c2nc[nH]c2c1I
Ki / µM: 0.075

STRUCTURE_SMILES: CCc1nc2c(I)c(I)c(I)c(I)c2[nH]1
Ki / µM: 0.019

STRUCTURE_SMILES: Brc1c(I)c(I)c2[nH]cnc2c1I
Ki / µM: 0.1

STRUCTURE_SMILES: O=c1[nH]c2c(Br)c(Br)c(Br)c(Br)c2[nH]1
Ki / µM: 0.18

STRUCTURE_SMILES: FC(F)(F)C(F)(F)c1nc2c(I)c(I)c(I)c(I)c2[nH]1
Ki / µM: 0.07

STRUCTURE_SMILES: Clc1nc2c(Br)c(Br)c(Br)c(Br)c2[nH]1
Ki / µM: 0.25

STRUCTURE_SMILES: Clc1nc2c(I)c(I)c(I)c(I)c2[nH]1
Ki / µM: 0.12

STRUCTURE_SMILES: Brc1nc2c(Br)c(Br)c(Br)c(Br)c2[nH]1
Ki / µM: 0.37

STRUCTURE_SMILES: S=c1[nH]c2c(Br)c(Br)c(Br)c(Br)c2[nH]1
Ki / µM: 0.2

STRUCTURE_SMILES: CNC(=O)Cn1cnc2c(Br)c(Br)c(Br)c(Br)c21
Ki / µM: 1.91

STRUCTURE_SMILES: Clc1c(I)c(I)c2[nH]cnc2c1I
Ki / µM: 0.16

STRUCTURE_SMILES: Brc1c(Br)c(Br)c2[nH]cnc2c1Br
Ki / µM: 0.3

STRUCTURE_SMILES: Cc1nc2c(I)c(Cl)c(Cl)c(I)c2[nH]1
Ki / µM: 0.33

Origin of values: ChEMBL document CHEMBL1152607
